Sourced from paper PMC9612005

Target: rod CNG channels (CNGA1:CNGB1a) (Bos taurus, UniProt Q00194+Q28181)
Construct: expressed in transfected cells; host or cells: Xenopus laevis oocytes (cRNA injection, pGEMHE vector); inside-out patches
Sequence (Q00194 whole entry): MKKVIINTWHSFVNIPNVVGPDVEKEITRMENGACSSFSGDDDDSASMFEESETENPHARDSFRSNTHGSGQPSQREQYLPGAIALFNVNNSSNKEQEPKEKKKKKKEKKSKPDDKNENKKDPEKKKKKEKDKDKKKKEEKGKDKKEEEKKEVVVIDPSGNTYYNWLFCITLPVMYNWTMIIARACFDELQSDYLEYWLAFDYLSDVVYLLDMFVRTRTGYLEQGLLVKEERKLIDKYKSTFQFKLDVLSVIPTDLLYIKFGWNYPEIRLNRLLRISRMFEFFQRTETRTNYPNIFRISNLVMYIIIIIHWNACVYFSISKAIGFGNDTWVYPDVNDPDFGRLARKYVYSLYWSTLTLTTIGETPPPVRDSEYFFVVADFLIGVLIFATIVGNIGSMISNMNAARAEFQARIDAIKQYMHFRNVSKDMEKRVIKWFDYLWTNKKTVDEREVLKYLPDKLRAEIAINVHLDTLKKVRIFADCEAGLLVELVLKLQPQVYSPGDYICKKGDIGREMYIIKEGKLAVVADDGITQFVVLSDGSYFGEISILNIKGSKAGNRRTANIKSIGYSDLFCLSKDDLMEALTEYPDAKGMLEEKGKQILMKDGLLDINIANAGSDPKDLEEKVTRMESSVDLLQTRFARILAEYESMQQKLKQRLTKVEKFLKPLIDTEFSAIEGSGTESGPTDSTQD
Sequence (Q28181 whole entry): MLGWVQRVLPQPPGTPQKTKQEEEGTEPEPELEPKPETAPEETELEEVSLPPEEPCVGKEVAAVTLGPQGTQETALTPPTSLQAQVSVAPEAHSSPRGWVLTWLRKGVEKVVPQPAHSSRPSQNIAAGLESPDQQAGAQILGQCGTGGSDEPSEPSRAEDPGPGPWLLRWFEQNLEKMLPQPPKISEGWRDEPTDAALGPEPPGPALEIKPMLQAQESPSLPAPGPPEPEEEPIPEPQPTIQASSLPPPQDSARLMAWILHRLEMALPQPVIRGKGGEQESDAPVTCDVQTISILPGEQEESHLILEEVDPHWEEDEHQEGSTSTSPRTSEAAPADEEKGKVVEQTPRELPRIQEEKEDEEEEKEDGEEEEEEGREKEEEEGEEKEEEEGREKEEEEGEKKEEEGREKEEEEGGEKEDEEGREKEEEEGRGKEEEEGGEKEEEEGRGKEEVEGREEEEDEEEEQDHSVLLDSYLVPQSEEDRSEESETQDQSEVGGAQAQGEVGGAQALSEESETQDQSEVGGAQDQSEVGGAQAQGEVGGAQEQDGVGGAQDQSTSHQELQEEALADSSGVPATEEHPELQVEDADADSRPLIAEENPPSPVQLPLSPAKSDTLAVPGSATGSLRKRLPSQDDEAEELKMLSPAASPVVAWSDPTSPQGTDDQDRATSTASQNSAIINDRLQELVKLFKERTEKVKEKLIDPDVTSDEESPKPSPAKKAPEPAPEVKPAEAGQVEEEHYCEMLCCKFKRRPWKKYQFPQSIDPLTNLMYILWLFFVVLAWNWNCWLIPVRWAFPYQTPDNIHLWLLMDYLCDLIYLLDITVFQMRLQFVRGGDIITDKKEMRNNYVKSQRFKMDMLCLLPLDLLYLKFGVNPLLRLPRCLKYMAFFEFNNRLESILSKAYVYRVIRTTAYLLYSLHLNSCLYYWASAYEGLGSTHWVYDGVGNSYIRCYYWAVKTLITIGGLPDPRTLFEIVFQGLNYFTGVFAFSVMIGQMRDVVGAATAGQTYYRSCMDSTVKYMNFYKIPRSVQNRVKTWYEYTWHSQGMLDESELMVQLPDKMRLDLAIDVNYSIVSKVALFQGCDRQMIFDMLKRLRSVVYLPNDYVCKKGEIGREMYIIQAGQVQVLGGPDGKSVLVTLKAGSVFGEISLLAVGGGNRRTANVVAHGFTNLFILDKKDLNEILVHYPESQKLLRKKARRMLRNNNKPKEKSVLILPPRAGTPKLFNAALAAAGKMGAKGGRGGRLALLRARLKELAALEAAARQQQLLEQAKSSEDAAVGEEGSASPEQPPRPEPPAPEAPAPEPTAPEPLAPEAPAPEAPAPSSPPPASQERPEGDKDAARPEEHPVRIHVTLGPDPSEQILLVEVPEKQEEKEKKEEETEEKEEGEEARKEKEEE
Assay: Patch-clamp on inside-out patches, heterotetrameric rod CNG channels expressed in Xenopus laevis oocytes
Type: cell-based, bovine
observed property: pEC50
Please keep in mind that pEC50 is minus log10 of the molar concentration; only the number is needed.

Report pEC50 for `O=c1c2nc(Br)n([C@@H]3O[C@@H]4CO[P@@](=O)(S)O[C@H]4[C@H]3O)c2nc2[nH]c(-c3ccccc3)cn12` tested on rod CNG channels (CNGA1:CNGB1a) (Bos taurus, UniProt Q00194+Q28181).
6.35
